tested on: TE-9 (Esophageal Squamous Cell Carcinoma); test: combination Emax (second highest fraction inhibited in the dose matrix, 72 h); higher = more inhibition; extreme values may be limits of the assay
Please enter criterion met where combination Emax is greater than or equal to 0.5, and criterion not met where it is lower.

C[C@@H](Oc1cc(-c2cnn(C3CCNCC3)c2)cnc1N)c1c(Cl)ccc(F)c1Cl [Crizotinib] + Cn1cnc2c(F)c(Nc3ccc(Br)cc3Cl)c(C(=O)NOCCO)cc21 [Selumetinib] (first compound max 10 µM, 7x7, partner max 10 µM): criterion not met
O=C(c1cc(Cc2n[nH]c(=O)c3ccccc23)ccc1F)N1CCN(C(=O)C2CC2)CC1 [Olaparib] + CN(CC[C@H](CSC1=CC=CC=C1)NC2=C(C=C(C=C2)S(=O)(=O)NC(=O)C3=CC=C(C=C3)N4CCC(CC4)[C@H](C5=CC=CC=C5C6=CC=C(C=C6)Cl)O)S(=O)(=O)C(F)(F)F)CCO [AZD4320] (first compound max 10 µM, 7x7, partner max 1 µM): criterion not met
C[C@@H](Oc1cc(-c2cnn(C3CCNCC3)c2)cnc1N)c1c(Cl)ccc(F)c1Cl [Crizotinib] + CC1=C(C(=CC=C1)Cl)NC(=O)C2=CN=C(S2)NC3=CC(=NC(=N3)C)N4CCN(CC4)CCO [Dasatinib] (first compound max 10 µM, 7x7, partner max 2 µM): criterion met
COc1nnc2ccc(N3CCC(c4ccc(OCCN5CCN(C)C(=O)[C@H]5C)cc4)CC3)nn12 [AZD5153] + Cc1c2c(nn1C)CSCc1cc(n(C)n1)CSc1cc(c3ccccc3c1)OCCCc1c(C(=O)O)n(C)c3c-2c(Cl)ccc13 [AZD5991] (first compound max 1 µM, 7x7, partner max 1 µM): criterion met
COc1cccc(OCCCN)c1-c1cc(Nc2cnc(C#N)cn2)n[nH]1 [Prexasertib] + CN(C)CCCOc1ccc(-c2ccc3ncc4c(c3c2)n(C2CCOCC2)c(=O)n4C)cn1 [AZD0156] (first compound max 1 µM, 7x7, partner max 1 µM): criterion met
C[C@@H]1COCCN1c1cc(C2([S@](C)(=N)=O)CC2)nc(-c2ccnc3[nH]ccc23)n1 [AZD6738] + Nc1ccn([C@@H]2O[C@H](CO)[C@@H](O)C2(F)F)c(=O)n1 [Gemcitabine] (first compound max 10 µM, 7x7, partner max 0.3 µM): criterion met
Cc1cc2ncnn2cc1Nc1ncc2c(n1)n(C1CCOCC1)c(=O)n2C [AZD7648] + C[C@@H]1COCCN1C2=NC(=NC(=C2)C3(CC3)[S@](=N)(=O)C)C4=C5C=CNC5=NC=C4 [AZD6738] (first compound max 10 µM, 7x7, partner max 10 µM): criterion not met
C=CCn1c(=O)c2cnc(Nc3ccc(N4CCN(C)CC4)cc3)nc2n1-c1cccc(C(C)(C)O)n1 [AZD1775] + C[C@@H]1COCCN1C2=NC(=NC(=C2)C3(CC3)[S@](=N)(=O)C)C4=C5C=CNC5=NC=C4 [AZD6738] (first compound max 1 µM, partner max 10 µM): criterion met
O=C(c1cc(Cc2n[nH]c(=O)c3ccccc23)ccc1F)N1CCN(C(=O)C2CC2)CC1 [Olaparib] + Cc1c2c(nn1C)CSCc1cc(n(C)n1)CSc1cc(c3ccccc3c1)OCCCc1c(C(=O)O)n(C)c3c-2c(Cl)ccc13 [AZD5991] (first compound max 10 µM, 7x7, partner max 1 µM): criterion not met

====

Reported values of combination Emax for individual entries
tested on: HCC1806 (Breast Carcinoma); assay: combination Emax (second highest fraction inhibited in the dose matrix, 72 h); higher = more inhibition; extreme values may be limits of the assay
recordedEndpoint: combination Emax

CN(CCO)CC[C@H](CSc1ccccc1)Nc1ccc(S(=O)(=O)NC(=O)c2ccc(N3CCC([C@@H](O)c4ccccc4-c4ccc(Cl)cc4)CC3)cc2)cc1S(=O)(=O)C(F)(F)F [AZD4320] + Cn1cnc2c(F)c(Nc3ccc(Br)cc3Cl)c(C(=O)NOCCO)cc21 [Selumetinib] (first compound max 1 µM, 7x7, partner max 3 µM): 0.795
COc1cccc(OCCCN)c1-c1cc(Nc2cnc(C#N)cn2)n[nH]1 [Prexasertib] + O=C(c1cc(Cc2n[nH]c(=O)c3ccccc23)ccc1F)N1CCN(C(=O)C2CC2)CC1 [Olaparib] (first compound max 1 µM, 7x7, partner max 10 µM): 0.999
NC1(C(=O)N[C@@H](CCO)c2ccc(Cl)cc2)CCN(c2ncnc3[nH]ccc23)CC1 [Capivasertib] + CC(=O)c1c(C)c2cnc(Nc3ccc(N4CCNCC4)cn3)nc2n(C2CCCC2)c1=O [Palbociclib] (first compound max 10 µM, 7x7, partner max 10 µM): 0.516

====

tested on: HCC-78 (Lung Adenocarcinoma); experiment: combination Emax (second highest fraction inhibited in the dose matrix, 72 h); higher = more inhibition; extreme values may be limits of the assay
molecules and their reported combination Emax
recordedEndpoint: combination Emax

CN(CCO)CC[C@H](CSc1ccccc1)Nc1ccc(S(=O)(=O)NC(=O)c2ccc(N3CCC([C@@H](O)c4ccccc4-c4ccc(Cl)cc4)CC3)cc2)cc1S(=O)(=O)C(F)(F)F [AZD4320] + C[C@@H](Nc1cc(F)cc(F)c1)c1cc(C(=O)N(C)C)cc2c(=O)cc(N3CCOCC3)oc12 [AZD8186] (first compound max 1 µM, 7x7, partner max 3 µM): 0.528
COc1nnc2ccc(N3CCC(c4ccc(OCCN5CCN(C)C(=O)[C@H]5C)cc4)CC3)nn12 [AZD5153] + C[C@@H]1COCCN1C2=NC(=NC(=C2)C3(CC3)[S@](=N)(=O)C)C4=C5C=CNC5=NC=C4 [AZD6738] (first compound max 1 µM, 7x7, partner max 10 µM): 0.517

====

Each record here notes measured combination Emax.
test system: DoTc2-4510 (Cervical Carcinoma); assay: combination Emax (second highest fraction inhibited in the dose matrix, 72 h); higher = more inhibition; extreme values may be limits of the assay
recordedEndpoint: combination Emax

Cc1cc2ncnn2cc1Nc1ncc2c(n1)n(C1CCOCC1)c(=O)n2C [AZD7648] + O=C(c1cc(Cc2n[nH]c(=O)c3ccccc23)ccc1F)N1CCN(C(=O)C2CC2)CC1 [Olaparib] (first compound max 10 µM, 7x7, partner max 10 µM): 0.277
CN(C)CCCOc1ccc(-c2ccc3ncc4c(c3c2)n(C2CCOCC2)c(=O)n4C)cn1 [AZD0156] + C[C@@H]1COCCN1C2=NC(=NC(=C2)C3(CC3)[S@](=N)(=O)C)C4=C5C=CNC5=NC=C4 [AZD6738] (first compound max 1 µM, 7x7, partner max 10 µM): 0.811

====

test system: NB10 (Neuroblastoma); experiment: Bliss excess, mean over the matrix (fraction); higher = more synergy;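 also: after 72 h of two-drug dosing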
Using Bliss excess as the sorting value, the categories are bin 1 = under -0.04, bin 2 = from -0.04 up to -0.01, bin 3 = -0.01 and over

CN(CCO)CC[C@H](CSc1ccccc1)Nc1ccc(S(=O)(=O)NC(=O)c2ccc(N3CCC([C@@H](O)c4ccccc4-c4ccc(Cl)cc4)CC3)cc2)cc1S(=O)(=O)C(F)(F)F [AZD4320] + Cn1cnc2c(F)c(Nc3ccc(Br)cc3Cl)c(C(=O)NOCCO)cc21 [Selumetinib] (first compound max 1 µM, 7x7, partner max 3 µM): bin 3
CN(CCO)CC[C@H](CSc1ccccc1)Nc1ccc(S(=O)(=O)NC(=O)c2ccc(N3CCC([C@@H](O)c4ccccc4-c4ccc(Cl)cc4)CC3)cc2)cc1S(=O)(=O)C(F)(F)F [AZD4320] + Cc1cc2ncnn2cc1Nc1ncc2c(n1)n(C1CCOCC1)c(=O)n2C [AZD7648] (first compound max 1 µM, 7x7, partner max 10 µM): bin 2
Cc1c2c(nn1C)CSCc1cc(n(C)n1)CSc1cc(c3ccccc3c1)OCCCc1c(C(=O)O)n(C)c3c-2c(Cl)ccc13 [AZD5991] + C=CCn1c(=O)c2cnc(Nc3ccc(N4CCN(C)CC4)cc3)nc2n1-c1cccc(C(C)(C)O)n1 [AZD1775] (first compound max 1 µM, partner max 1 µM): bin 1
COc1cccc(OCCCN)c1-c1cc(Nc2cnc(C#N)cn2)n[nH]1 [Prexasertib] + C=CCn1c(=O)c2cnc(Nc3ccc(N4CCN(C)CC4)cc3)nc2n1-c1cccc(C(C)(C)O)n1 [AZD1775] (first compound max 1 µM, partner max 1 µM): bin 3
CN(C)CCCOc1ccc(-c2ccc3ncc4c(c3c2)n(C2CCOCC2)c(=O)n4C)cn1 [AZD0156] + CCN(CCO)CCCOc1ccc2c(Nc3cc(CC(=O)Nc4cccc(F)c4)[nH]n3)ncnc2c1 [AZD2811] (first compound max 1 µM, 7x7, partner max 1 µM): bin 1
COc1nnc2ccc(N3CCC(c4ccc(OCCN5CCN(C)C(=O)[C@H]5C)cc4)CC3)nn12 [AZD5153] + CC1(C)CCC(CN2CCN(c3ccc(C(=O)NS(=O)(=O)c4ccc(NCC5CCOCC5)c([N+](=O)[O-])c4)c(Oc4cnc5[nH]ccc5c4)c3)CC2)=C(c2ccc(Cl)cc2)C1 [Venetoclax] (first compound max 1 µM, 7x7, partner max 1 µM): bin 1
O=C(c1cc(Cc2n[nH]c(=O)c3ccccc23)ccc1F)N1CCN(C(=O)C2CC2)CC1 [Olaparib] + Cc1c2c(nn1C)CSCc1cc(n(C)n1)CSc1cc(c3ccccc3c1)OCCCc1c(C(=O)O)n(C)c3c-2c(Cl)ccc13 [AZD5991] (first compound max 10 µM, 7x7, partner max 1 µM): bin 2
Cn1cnc2c(F)c(Nc3ccc(Br)cc3Cl)c(C(=O)NOCCO)cc21 [Selumetinib] + C=CCn1c(=O)c2cnc(Nc3ccc(N4CCN(C)CC4)cc3)nc2n1-c1cccc(C(C)(C)O)n1 [AZD1775] (first compound max 10 µM, partner max 1 µM): bin 2
CC(=O)c1c(C)c2cnc(Nc3ccc(N4CCNCC4)cn3)nc2n(C2CCCC2)c1=O [Palbociclib] + CC1(C)CCC(CN2CCN(c3ccc(C(=O)NS(=O)(=O)c4ccc(NCC5CCOCC5)c([N+](=O)[O-])c4)c(Oc4cnc5[nH]ccc5c4)c3)CC2)=C(c2ccc(Cl)cc2)C1 [Venetoclax] (first compound max 10 µM, 7x7, partner max 1 µM): bin 3
C=CCn1c(=O)c2cnc(Nc3ccc(N4CCN(C)CC4)cc3)nc2n1-c1cccc(C(C)(C)O)n1 [AZD1775] + CCc1c2c(nc3ccc(O)cc13)-c1cc3c(c(=O)n1C2)COC(=O)[C@]3(O)CC [SN-38] (first compound max 1 µM, partner max 0.3 µM): bin 1
CC1(C)CCC(CN2CCN(c3ccc(C(=O)NS(=O)(=O)c4ccc(NCC5CCOCC5)c([N+](=O)[O-])c4)c(Oc4cnc5[nH]ccc5c4)c3)CC2)=C(c2ccc(Cl)cc2)C1 [Venetoclax] + C[C@@H]1COCCN1C2=NC(=NC(=C2)C3(CC3)[S@](=N)(=O)C)C4=C5C=CNC5=NC=C4 [AZD6738] (first compound max 1 µM, 7x7, partner max 10 µM): bin 3
